Kindly state normalized RNA/DNA level with ligand (log10) for each of the entries shown.
B1: library; a variant is named by its letters at N, in order (parent)
chain: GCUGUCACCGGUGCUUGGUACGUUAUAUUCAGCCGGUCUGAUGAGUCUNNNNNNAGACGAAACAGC

# Variants of: B1
# TEST SUMMARY: normalized RNA/DNA level with ligand (relative to sTRSVctl = 100) (log10 (% of sTRSVctl)); HEK293T overexpressing SLC46A1; ligand concentration (+) RNA-Seq: 6 mM; higher = less ribozyme self-cleavage, higher mRNA level
# TEST PARAMETERS: with (6R,S)-folinic acid; ligand present: yes
Numbers only.

For orientation, consider the following solved cases.
mutation_string=GUUAGG reported=2
mutation_string=UCGACC reported=2.04
mutation_string=GUAUUA reported=2

Quick request: normalized RNA/DNA level with ligand (log10) for each listed item, please.
1. CGACAC
2. CUCAAA
3. AGUCUU
4. UCAGAA
5. CUUACU
6. UGCGGU
7. AACACG

2
1.97
1.99
2.02
2.02
2.03
2

Provenance of the data: the supplement of paper PMC6757056
